- Tested on: L. pneumophila serogroup 6
- protocol: microbe, parasite or virus in culture
- Format: cell-based
- condition_context: Legionella pneumophila, 48 h, read-out: MIC Range
# MIC per entry

Examples from the recorded data:
molecule	MIC
Cc1c(F)c(N2CCNC(C)C2)cc2c1c(=O)c(C(=O)O)cn2C1CC1 (stereo not drawn)	0.004 to 0.016 µg/mL
CC[C@H]1OC(=O)[C@H](C)[C@@H](O[C@H]2C[C@@](C)(OC)[C@@H](O)[C@H](C)O2)[C@H](C)[C@@H](O[C@@H]2O[C@H](C)C[C@H](N(C)C)[C@H]2O)[C@](C)(O)C[C@@H](C)CN(C)[C@H](C)[C@@H](O)[C@]1(C)O	0.016 to 0.25 µg/mL
CO/N=C1\CN(c2nc3c(cc2F)c(=O)c(C(=O)O)cn3C2CC2)CC1CN (racemic)	0.008 to 0.03 µg/mL
C[C@H]1COc2c(N3CCN(C)CC3)c(F)cc3c(=O)c(C(=O)O)cn1c23	0.008 to 0.016 µg/mL
CC[C@H]1OC(=O)[C@H](C)[C@@H](O[C@H]2C[C@@](C)(OC)[C@@H](O)[C@H](C)O2)[C@H](C)[C@@H](O[C@@H]2O[C@H](C)C[C@H](N(C)C)[C@H]2O)[C@](C)(OC)C[C@@H](C)C(=O)[C@H](C)[C@@H](O)[C@]1(C)O	0.004 to 0.06 µg/mL

Consider the record given below.
Form field MIC for item COc1c(N2C[C@@H]3CCCN[C@@H]3C2)c(F)cc2c(=O)c(C(=O)O)cn(C3CC3)c12 on L. pneumophila serogroup 6: 0.004 to 0.016 µg/mL

====

# MIC per entry
- System: L. pneumophila serogroup 4
- protocol: microbe, parasite or virus in culture
- Assay type: cell-based
- condition_context: Legionella pneumophila, 48 h, read-out: MIC Range

Examples from the recorded data:
molecule	MIC
N[C@@H]1[C@H]2CN(c3nc4c(cc3F)c(=O)c(C(=O)O)cn4-c3ccc(F)cc3F)C[C@@H]12	≤ 4 ng/mL
CO[C@H]1/C=C/O[C@@]2(C)Oc3c(C)c(O)c4c(O)c(c(/C=N/N5CCN(C)CC5)c(O)c4c3C2=O)NC(=O)/C(C)=C\C=C\[C@H](C)[C@H](O)[C@@H](C)[C@@H](O)[C@@H](C)[C@H](OC(C)=O)[C@@H]1C	4 to 8 ng/mL
COc1c(N2C[C@@H]3CCCN[C@@H]3C2)c(F)cc2c(=O)c(C(=O)O)cn(C3CC3)c12	4 to 16 ng/mL
CC[C@H]1OC(=O)[C@H](C)[C@@H](O[C@H]2C[C@@](C)(OC)[C@@H](O)[C@H](C)O2)[C@H](C)[C@@H](O[C@@H]2O[C@H](C)C[C@H](N(C)C)[C@H]2O)[C@](C)(OC)C[C@@H](C)C(=O)[C@H](C)[C@@H](O)[C@]1(C)O	4 to 60 ng/mL

Consider the record given below.
Reported MIC of CO/N=C1\CN(c2nc3c(cc2F)c(=O)c(C(=O)O)cn3C2CC2)CC1CN (racemic) : 8 to 30 ng/mL

====

- Test system: L. pneumophila serogroup 6
- protocol: microbe, parasite or virus in culture
- Format: cell-based
- condition_context: Legionella pneumophila, 48 h, read-out: MIC Range
outcome_measure: MIC

molecule	outcome_measure	experimental_value
CC1COc2c(N3CCN(C)CC3)c(F)cc3c(=O)c(C(=O)O)cn1c23 (stereo not shown)	MIC	8 to 30 ng/mL

Form field MIC for item N[C@@H]1[C@H]2CN(c3nc4c(cc3F)c(=O)c(C(=O)O)cn4-c3ccc(F)cc3F)C[C@@H]12 on L. pneumophila serogroup 6: ≤ 4 ng/mL

Form field MIC for item CO[C@H]1/C=C/O[C@@]2(C)Oc3c(C)c(O)c4c(O)c(c(/C=N/N5CCN(C)CC5)c(O)c4c3C2=O)NC(=O)/C(C)=C\C=C\[C@H](C)[C@H](O)[C@@H](C)[C@@H](O)[C@@H](C)[C@H](OC(C)=O)[C@@H]1C on L. pneumophila serogroup 6: 4 to 8 ng/mL

Form field MIC for item CC[C@H]1OC(=O)[C@H](C)[C@@H](O[C@H]2C[C@@](C)(OC)[C@@H](O)[C@H](C)O2)[C@H](C)[C@@H](O[C@@H]2O[C@H](C)C[C@H](N(C)C)[C@H]2O)[C@](C)(O)C[C@@H](C)C(=O)[C@H](C)[C@@H](O)[C@]1(C)O on L. pneumophila serogroup 6: 8 to 250 ng/mL
